Measured M.I. %: maximum percentage inhibition of cell viability of individual entries
System: K562
methodSummary: CellTiterGlo cell viability assay, initial screening
Type: cell-based
measurementContext: 72 hr, Table II

Observe how each entry below is paired with its result.
INSERT INTO results (molecule, result) VALUES
  ('Nc1ncnc2c1ncn2[C@@H]1O[C@H](CO)C[C@H]1O [Cordycepin, 3′-deoxyadenosine, reference compound]', '88%'),
  ('CCOC(=O)CCc1ccccc1OP(=O)(N[C@@H](C)C(=O)OCc1ccccc1)OC[C@@H]1C[C@@H](O)[C@H](n2cnc3c(N)ncnc32)O1 (stereo partly drawn) [F]', '91%');

Continue with the next molecule.
Task: Entry under review: Nc1ncnc2c1ncn2[C@@H]1O[C@H](COP(=O)(NCC(=O)OCc2ccccc2)Oc2ccccc2)C[C@H]1O (stereo partly drawn) [C] . Reported M.I. %: maximum percentage inhibition of cell viability?
Result: 92%

Every entry's value here was drawn from patent US12054510B2.
